molecular target: LANCL2 (Homo sapiens (Human)); experiment: SPR (BIACORE S200) kinetic determination of LANCL2-small molecule interactions; settings: immobilized LANCL2, 1:1 binding model, pH 6.5, 25° C.
pKd: −log10 of the molar value.
Each entry gets 0 (no) if its pKd stays under 5, and 1 (yes) if its pKd is 5 or above.

Query block: Quick check, pKd >= 5? CCCCOc1ccc(C(=O)NC2CCN(C(=O)c3cccc(-c4cn5ccccc5n4)c3)CC2)cc1
Result block: 1 (yes)

Query block: Quick check, pKd >= 5? O=C(c1cccc(-c2nc3ccccc3[nH]2)n1)N1CCC2(CCN(C(=O)c3nccc(Nc4ccccc4)n3)C2)C1 (stereo not drawn)
Result block: 0 (no)

Query block: Quick check, pKd >= 5? O=C1CCC(C(=O)N2CC3CN(C(=O)c4cccc(-c5nc6ccccc6[nH]5)n4)CC3C2)=NN1 (stereo not drawn)
Result block: 0 (no)

Query block: Quick check, pKd >= 5? O=C(c1cccc(-c2nc3ccccc3[nH]2)n1)N1CC2CN(C(=O)c3ccnc(Nc4ccc(F)cc4)n3)CC2C1 (stereo not drawn)
Result block: 0 (no)

Query block: Quick check, pKd >= 5? O=C(NC1CCN(C(=O)c2ccnc(Nc3ccccc3)n2)CC1)c1cccc(Nc2ccccc2)n1
Result block: 0 (no)

Query block: Quick check, pKd >= 5? O=C(NC1C2CN(C(=O)c3cccc(-c4nc5ccccc5s4)c3)CC21)c1cccc(-c2nc3ccccc3[nH]2)n1 (stereo not drawn)
Result block: 1 (yes)

Query block: Quick check, pKd >= 5? O=C(c1cccc(-c2nc3ccccc3[nH]2)n1)N1CC2CN(C(=O)C3CCC(c4ccc(Cl)cc4)CC3)CC2C1 (stereo not drawn)
Result block: 0 (no)

Query block: Quick check, pKd >= 5? O=C(NC1CCN(C(=O)c2cccc(-c3cn4ccccc4n3)c2)CC1)c1cccc(-c2cn3ccccc3n2)c1
Result block: 0 (no)

Query block: Quick check, pKd >= 5? O=C(c1cccc(-c2cn3ccccc3n2)c1)N1CC2CN(C(=O)c3cccc(-c4cn5ccccc5n4)c3)CC2C1 (stereo not drawn)
Result block: 0 (no)

Query block: Quick check, pKd >= 5? O=C(c1cccc(-c2nc3ccccc3[nH]2)n1)N1CC2CC1CN2C(=O)c1ccnc(N2CCOCC2)n1 (stereo not drawn)
Result block: 0 (no)

Query block: Quick check, pKd >= 5? O=C(c1cccc(Nc2ccccc2)n1)N1CCC2(CCN(C(=O)c3cccc(-c4nc5ccccc5[nH]4)n3)C2)C1 (stereo not drawn)
Result block: 0 (no)

* * *

Target: LANCL2 (Homo sapiens (Human), UniProt Q9NS86)
Sequence (Q9NS86 whole entry, species assumed): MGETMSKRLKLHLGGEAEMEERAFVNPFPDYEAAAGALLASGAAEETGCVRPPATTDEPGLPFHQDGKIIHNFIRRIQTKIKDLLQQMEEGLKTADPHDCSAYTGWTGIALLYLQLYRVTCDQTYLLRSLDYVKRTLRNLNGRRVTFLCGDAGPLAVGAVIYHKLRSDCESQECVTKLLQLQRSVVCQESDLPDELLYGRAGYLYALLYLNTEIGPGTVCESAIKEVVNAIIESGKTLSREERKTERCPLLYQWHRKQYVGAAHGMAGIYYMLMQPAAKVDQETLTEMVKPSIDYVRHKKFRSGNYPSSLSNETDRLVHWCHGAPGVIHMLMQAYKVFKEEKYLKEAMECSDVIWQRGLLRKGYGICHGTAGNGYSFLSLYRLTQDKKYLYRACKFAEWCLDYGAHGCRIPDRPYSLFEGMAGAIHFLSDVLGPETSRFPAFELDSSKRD
Assay: SPR (BIACORE S200) kinetic determination of LANCL2-small molecule interactions
Format: binding
Conditions: maximum binding force
Protocol: 1.1 Reagent Materials • Ligand: LANCL2 • Running buffer: 20 mM MES, 150 mM NaCl, 0.05% P20, pH 6.5, 1% DMSO Injection conditions for small molecule compounds: a flow rate of 30 μL/min, a binding time of 60 s, a dissociation time of 300 s. […] Kinetic determination of LANCL2-small molecule interactions was performed. The kinetic parameters of small molecules BT-11 and L-1 to 60 (analytes) binding to LANCL2 (ligand) were determined using BIACORE S200. […]
// classify: if (Rmax (RU) < 8 RU) MET else NOT MET

Solved entries (count: 5):
molecule="Cc1[nH]c2ccccc2c1C(=O)N1CC2CN(C(=O)c3cccc(-c4nc5ccccc5[nH]4)n3)CC2C1 (stereo not drawn)" classification=MET
molecule="O=C(c1cccc(-c2nc3ccccc3[nH]2)n1)N1CC2CN(C(=O)c3ccnc(Nc4ccc(F)cc4)n3)CC2C1 (stereo not drawn)" classification="NOT MET"
molecule="O=C(NC1C2CN(C(=O)c3cccc(-c4nc5ccccc5[nH]4)n3)CC21)c1ccnc(Nc2ccccc2)n1 (stereo not drawn)" classification=MET
molecule=O=C(Nc1ccccc1NC(=O)c1ccnc(N2CCOCC2)n1)c1ccnc(N2CCOCC2)n1 classification=MET
molecule="O=C(c1ccnc(Nc2ccccn2)c1)N1CC2CN(C(=O)c3cccc(-c4cn5ccccc5n4)n3)CC2C1 (stereo not drawn)" classification="NOT MET"

In the following, a different molecule is considered.
Query block: Given O=C(NC1CCN(C(=O)c2cccc(-c3cn4ccccc4n3)c2)CC1)c1cccc(-c2cn3ccccc3n2)c1 , is recorded Rmax (RU) strictly lower than 8 RU?
Result block: NOT MET

* * *

target: LANCL2 (Homo sapiens (Human), UniProt Q9NS86); assay: SPR (BIACORE S200) kinetic determination of LANCL2-small molecule interactions; assay type: binding; details: maximum binding force
Measured Rmax (RU), listed per entry.
Kindly provide the numeric value in RU only, without the unit symbol.

Answered examples (3):
compound="O=C(NC1CCN(C(=O)c2cccc(-c3nc4ccccc4[nH]3)n2)CC1)c1ccnc(Nc2ccccn2)n1 [Embodiment L-21]" value_unit=RU reported_result=7.3
compound="O=C(c1cccc(-c2nc3ccccc3[nH]2)n1)N1CCC2(CCN(C(=O)c3nccc(Nc4ccccc4)n3)C2)C1 [Embodiment L-66]" value_unit=RU reported_result=7.2
compound="O=C(c1cccc(Nc2ccccc2)n1)N1CCC2(CCN(C(=O)c3cccc(-c4nc5ccccc5[nH]4)n3)C2)C1 [Embodiment L-65]" value_unit=RU reported_result=6.5

Query block: Give me measured Rmax (RU), please, for this compound: O=C(N[C@H]1[C@@H]2CN(C(=O)c3sccc3-n3cccc3)C[C@@H]21)c1cccc(-c2cn3ccccc3n2)c1 [Embodiment L-104]
Result block: 9.7

* * *

biological target: UniProtKB Q9NS86; test: SPR (BIACORE S200) kinetic determination of LANCL2-small molecule interactions; details: immobilized LANCL2, 1:1 binding model, pH 6.5, 25° C.
Measured pKd, listed per entry.
// pKd is dimensionless: -log10 of concentration (M)

Answered examples (4):
molecule="O=C(c1cccc(-c2nc3ccccc3[nH]2)n1)N1CC2CN(C(=O)c3n[nH]c4ccccc34)CC2C1 (centres unmarked)" tgt="UniProtKB Q9NS86" reported_result=4.66
molecule=Cc1cn(-c2cccc(C(=O)N3CCN(C(=O)c4cccc(-c5nc6ccccc6[nH]5)n4)CC3)c2)cn1 tgt="UniProtKB Q9NS86" reported_result=4.57
molecule=O=C(Nc1ccccc1NC(=O)c1ccnc(N2CCOCC2)n1)c1ccnc(N2CCOCC2)n1 tgt="UniProtKB Q9NS86" reported_result=4.42
molecule="O=C(c1ccnc(Nc2ccccc2)n1)N1CC2CN(C(=O)c3ccnc(Nc4ccccc4)n3)CC2C1 (centres unmarked)" tgt="UniProtKB Q9NS86" reported_result=4.27

Query block: Report pKd from UniProtKB Q9NS86 testing of O=C(NC1CCN(C(=O)c2ccnc(Nc3ccccc3)n2)CC1)c1ccnc(Nc2ccccc2)n1
Result block: 4.61

Query block: Report pKd from UniProtKB Q9NS86 testing of O=C(c1cccc(-c2nc3ccccc3[nH]2)n1)N1CCN(C(=O)c2cccc(-c3nc4ccccc4[nH]3)n2)CC1 [BT-11, reference compound]
Result block: 5.35

Query block: Report pKd from UniProtKB Q9NS86 testing of O=C(c1cccc(-c2cn3ccccc3n2)c1)N1CCC2(CC1)CCN(C(=O)c1cccc(-c3cn4ccccc4n3)c1)CC2
Result block: 5.06

Query block: Report pKd from UniProtKB Q9NS86 testing of O=C(NC1CCN(C(=O)c2cccc(-c3cn4ccccc4n3)c2)CC1)c1ccnc(Nc2ccccc2)n1
Result block: 4.88

* * *

Measured Kd, listed per entry.
target: LANCL2 (Homo sapiens (Human), UniProt Q9NS86); experiment: SPR (BIACORE S200) kinetic determination of LANCL2-small molecule interactions; details: immobilized LANCL2, 1:1 binding model, pH 6.5, 25° C.
Kindly provide the numeric value in µM only, without the unit symbol.

Answered examples (5):
molecule=O=C(c1cccc(-c2nc3ccccc3[nH]2)n1)N1CCC2(CC1)CCN(C(=O)c1ccnc(Nc3ccccc3)n1)C2 tgt="LANCL2 (Homo sapiens (Human), UniProt Q9NS86)" measured_metric=Kd reported_result=29.3
molecule="O=C(NC1C2CN(C(=O)c3cccc(-c4nc5ccccc5[nH]4)n3)CC21)c1ccnc(N2CCOCC2)n1 (stereo not shown)" tgt="LANCL2 (Homo sapiens (Human), UniProt Q9NS86)" measured_metric=Kd reported_result=21.1
molecule=O=C(c1cccc(Nc2ccccc2)n1)N1CCC2(CC1)CCN(C(=O)c1ccnc(Nc3ccccc3)n1)CC2 tgt="LANCL2 (Homo sapiens (Human), UniProt Q9NS86)" measured_metric=Kd reported_result=28.4
molecule=O=C(c1cccc(Nc2ccccc2)n1)N1CCCC2(CCN(C(=O)c3cccc(-c4nc5ccccc5[nH]4)n3)CC2)C1 tgt="LANCL2 (Homo sapiens (Human), UniProt Q9NS86)" measured_metric=Kd reported_result=53.5
molecule=O=C(c1cccc(-c2cn3ccccc3n2)c1)N1CCC2(CC1)CCN(C(=O)c1cccc(Nc3ccccc3)n1)CC2 tgt="LANCL2 (Homo sapiens (Human), UniProt Q9NS86)" measured_metric=Kd reported_result=6.93

Query block: Give me measured Kd, please, for this molecule: O=C(c1ccc(-c2ccccc2)cc1)N1CC2CN(C(=O)c3cccc(-c4nc5ccccc5[nH]4)n3)CC2C1 (stereo not shown)
Result block: 9.38

Query block: Give me measured Kd, please, for this molecule: Cc1ccc2cc(C(=O)N3CC4CN(C(=O)c5cccc(-c6nc7ccccc7[nH]6)n5)CC4C3)ccc2n1 (stereo not shown)
Result block: 23.5
